Test system: CCRF-CEM
ASSAY EXPLANATION: Induction of mitotic block in human CCRF-CEM cells assessed as histone H3 Ser10 phosphorylation level at antiproliferative IC50 incubated for 48 hrs by flow cytometric analysis (reference value: 0.97%)
Type: functional
MEASURED PROPERTY: Activity (%)
Numbers only, in %.

Examples from the recorded data:
>>> observed("COc1ccc(C2=C(c3cc(OC)c(OC)c(OC)c3)CCC2)cc1O")
1.1
>>> observed("COc1ccc(C2=C(c3cc(OC)c(OC)c(OC)c3)CC2)cc1O")
45.85
>>> observed("COc1ccc(C2CC2c2cc(OC)c(OC)c(OC)c2)cc1N (racemic)")
43.86
>>> observed("COc1ccc(/C=C\\c2cc(OC)c(OC)c(OC)c2)cc1N")
48.37
>>> observed("COc1ccc(C2=C(c3cc(OC)c(OC)c(OC)c3)CCCC2)cc1O")
1.15

Dear colleague, could you send me Activity for each of the items below? Thanks.
1. COc1ccc(C2CCC2c2cc(OC)c(OC)c(OC)c2)cc1O (racemic)
2. COc1ccc(C2CC2c2cc(OC)c(OC)c(OC)c2)cc1O (racemic)

1. 1.14
2. 43.35

Dear colleague, could you send me Activity for each of the items below? Thanks.
1. COc1ccc(/C=C\c2cc(OC)c(OC)c(OC)c2)cc1O [COMBRETASTATIN A4]
2. COc1ccc(C2CCCC2c2cc(OC)c(OC)c(OC)c2)cc1O (racemic)
3. COc1ccc(C2CCCCC2c2cc(OC)c(OC)c(OC)c2)cc1O (racemic)

1. 46.51
2. 1.39
3. 2.08

====

System: CCRF-CEM
ASSAY EXPLANATION: Induction of cell cycle arrest in human CCRF-CEM cells assessed as accumulation at S phase at antiproliferative IC50 incubated for 24 hrs by PI staining based flow cytometric analysis (reference value: 46%)
Type: functional
What Activity was measured for each of the following?
One number for each entry, in %.

Examples from the recorded data:
>>> observed("COc1ccc(C2=C(c3cc(OC)c(OC)c(OC)c3)CC2)cc1O")
42.66
>>> observed("COc1ccc(C2CC2c2cc(OC)c(OC)c(OC)c2)cc1O (racemic)")
37.89
>>> observed("COc1ccc(C2CCCC2c2cc(OC)c(OC)c(OC)c2)cc1O (racemic)")
47.43
>>> observed("COc1ccc(C2CCC2c2cc(OC)c(OC)c(OC)c2)cc1O (racemic)")
44.36
>>> observed("COc1ccc(C2CC2c2cc(OC)c(OC)c(OC)c2)cc1N (racemic)")
45.09

Dear colleague, could you send me Activity for each of the items below? Thanks.
1. COc1ccc(C2=C(c3cc(OC)c(OC)c(OC)c3)CCCC2)cc1O
2. COc1ccc(C2=C(c3cc(OC)c(OC)c(OC)c3)CCC2)cc1O
3. COc1ccc(C2CCCCC2c2cc(OC)c(OC)c(OC)c2)cc1O (racemic)
4. COc1ccc(/C=C\c2cc(OC)c(OC)c(OC)c2)cc1O
5. COc1ccc(/C=C\c2cc(OC)c(OC)c(OC)c2)cc1N

[46.07, 47.54, 45, 37.91, 35.04]

====

System: CCRF-CEM
ASSAY EXPLANATION: Induction of apoptosis in human CCRF-CEM cells assessed as accumulation at subG1 phase at antiproliferative IC50 incubated for 24 hrs by PI staining based flow cytometric analysis (reference value: 3.71%)
Format: functional
What Activity was measured for each of the following?
Answers are plain numbers, in %.

>>> observed("COc1ccc(C2CCC2c2cc(OC)c(OC)c(OC)c2)cc1O (racemic)")
4.74
>>> observed("COc1ccc(C2=C(c3cc(OC)c(OC)c(OC)c3)CC2)cc1O")
32.56

Dear colleague, could you send me Activity for each of the items below? Thanks.
1. COc1ccc(/C=C\c2cc(OC)c(OC)c(OC)c2)cc1O [COMBRETASTATIN A4]
2. COc1ccc(/C=C\c2cc(OC)c(OC)c(OC)c2)cc1N
3. COc1ccc(C2=C(c3cc(OC)c(OC)c(OC)c3)CCC2)cc1O
4. COc1ccc(C2CC2c2cc(OC)c(OC)c(OC)c2)cc1O (racemic)
5. COc1ccc(C2=C(c3cc(OC)c(OC)c(OC)c3)CCCC2)cc1O
6. COc1ccc(C2CCCC2c2cc(OC)c(OC)c(OC)c2)cc1O (racemic)
7. COc1ccc(C2CCCCC2c2cc(OC)c(OC)c(OC)c2)cc1O (racemic)

[32.03, 30.34, 3.8, 33.52, 4.5, 4.16, 3.42]

In one line, give reported Activity of the entry COc1ccc(C2CC2c2cc(OC)c(OC)c(OC)c2)cc1N (racemic) .
31.71

====

What selectivity ratio was measured for each of the following?
ASSAY EXPLANATION: Therapeutic index, ratio of IC50 for human […] cells to IC50 for human CCRF-CEM cells
Type: toxicity
TEST SETTINGS: MCR5 cells versus CCRF-CEM cells, read-out: Ratio IC50
Numbers only.

Dear colleague, could you send me selectivity ratio for each of the items below? Thanks.
1. COc1ccc(C2CCC2c2cc(OC)c(OC)c(OC)c2)cc1O (racemic)
2. COc1ccc(/C=C\c2cc(OC)c(OC)c(OC)c2)cc1N
3. COc1ccc(/C=C\c2cc(OC)c(OC)c(OC)c2)cc1O [COMBRETASTATIN A4]

[324, 0.18, 8.69]
